System: Saccharomyces cerevisiae
Assay: protein stability index of tFT-peptide fusion (C-terminal peptide) (PSI (0-1 scale)); higher = more stable (slower turnover)
Conditions: genetic background: wild type; temperature: 30 C
The entries below come with measured protein stability index values attached.
No unit in the answer, please; the number alone is enough.

1. SPPPAPPPISPS | 0.708
2. YACRLAPGDLLA | 0.643
3. EGCGLQRGMGVL | 0.681
4. PNAPSLSPPSLF | 0.624
5. FCSFSWFLFLRS | 0.405
6. RNAGYPALDELS | 0.686
7. GIEKEADRVRKN | 0.659
8. VVGGAGRRYVEG | 0.702

# input Suppose we examine the sequence `HSCPVCVGWNYS` ; what protein stability index value has been reported?
# output 0.654

# input For the sequence `VPEMFSSGIKGG` , what protein stability index is on record?
# output 0.653

# input Can you look up the measured protein stability index of `VECPFGTAGCHI` for me?
# output 0.659

# input Dear colleague, I am looking for the recorded protein stability index of the following sequence: `GFGKVIMEIESI`
# output 0.715

# input Bench note: what protein stability index did `VSHKETNKIKPN` show?
# output 0.701

# input # lookup: protein stability index of `VGCGGGEFSLFG`
# output 0.727

# input Find the recorded protein stability index belonging to `VIYYVRVGLVLS` and report it.
# output 0.203

---

Test system: Saccharomyces cerevisiae
Assay: protein stability index of tFT-peptide fusion (C-terminal peptide) (PSI (0-1 scale)); higher = more stable (slower turnover)
Details: genetic background: wild type; temperature: 30 C
Threshold check on protein stability index: at or above 0.7 gives label 1, strictly below gives label 0.

Below are worked cases with known answers.
1) LGFSHTRAIFFV | label 0
2) QQKKCNTIKKNE | label 0

# input Tell me whether protein stability index is at least 0.7 here: `GVCSFFVCVFFV`
# output label 0

# input Item `YYEVVCPLQHRI` with protein stability index of 0.7 or above?
# output label 0

# input protein stability index >= 0.7 for `CRGWWRPGLGVT` ?
# output label 0

# input Exam item: decide whether the reported protein stability index for `SPTLNRSLPVPS` is at least 0.7.
# output label 0

# input Could you verify whether the entry `SVNHVDIANSIL` shows protein stability index of no less than 0.7?
# output label 0

---

The following sequences are shown together with reported protein stability index values.
System: Saccharomyces cerevisiae;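 also: PSI is a weighted mean of sequencing reads over stability bins, variants kept only with over 10 reads, mCherry proximal and sfGFP distal, peptide attached via GGGS linker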
Experiment: protein stability index of tFT-peptide fusion (C-terminal peptide) (PSI (0-1 scale)); higher = more stable (slower turnover)
Conditions: genetic background: wild type; temperature: 30 C
Number only, no unit.

Recorded protein stability index, per entry:
1. CIYPYSSLLMRI | 0.532
2. IRVFSFLLFGCF | 0.44
3. AVYSACSRVGWV | 0.694
4. HVRSPLRRVEKF | 0.699
5. ARAPPSSYPPSG | 0.66
6. IGGLSLGESIGG | 0.689
7. MIILGFILYFFW | 0.422
8. SPPPISIYPPFR | 0.668
9. TIVSFYVRFLSG | 0.583
10. KIDKNHGILPNY | 0.679

# input I have this sequence here, `PPPSHYHSQGHN` , and I need its recorded protein stability index.
# output 0.686

# input Using the record for `NSWCRFLRRCLV` , report its protein stability index.
# output 0.609

# input What does the record list as protein stability index for `PSFVRTVPSPCP` ?
# output 0.658

# input What value of measured protein stability index is listed for `CSVPLGVFAIVV` ?
# output 0.48

# input Quick check: protein stability index of `TFLPAPSPTSPP` ?
# output 0.724

# input Query (sequence): `HSAVRMGTRGRG` ; field requested: protein stability index
# output 0.715

# input Data request, read-out protein stability index, for `KKKKKKKNRETK`
# output 0.655

# input What value of measured protein stability index is listed for `DLAPLSFVHLLL` ?
# output 0.596

# input Which measured protein stability index value corresponds to `KRRGECEGGRRG` ?
# output 0.672

# input Quick check: protein stability index of `VEIKSKRMLVVI` ?
# output 0.456

# input // returns reported protein stability index for input `SCFEFGALSSPI`
# output 0.753

# input Give its protein stability index value. Item: `YPLRCPITATHA`
# output 0.616

# input Query: protein stability index; subject: `VCRPLYNSMFGR`
# output 0.691

# input Look at this sequence and give its reported protein stability index. `KKKKKSKKQKKK`
# output 0.733

# input Returns the measured protein stability index for the input sequence. Input: `LQWAAGLRTTSP`
# output 0.692

# input // lookup protein stability index for `GVRGGRGQGWYR`
# output 0.637
